# target or test system: T1, recombinant human IL-6 (human, UniProt P05231 30-212)
# T1 construct: Bought protein
# T1 sequence (P05231 30-212 limits assumed): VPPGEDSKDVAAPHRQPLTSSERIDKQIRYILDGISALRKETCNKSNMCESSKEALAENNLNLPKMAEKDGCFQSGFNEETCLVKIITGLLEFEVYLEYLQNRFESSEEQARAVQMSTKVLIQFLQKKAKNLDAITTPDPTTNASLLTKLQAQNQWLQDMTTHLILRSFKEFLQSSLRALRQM
# run description: SPR Biacore, supernatant Ab on Protein A chip, IL-6 analyte, 25 C
Rule for this label: fulfilled means kon is less than 500000 M⁻¹ s⁻¹; not fulfilled means kon is at least 500000 M⁻¹ s⁻¹.

# binder, assigned category
measured = [
    ("anti-IL-6 antibody, light chain T96V (heavy chain WT) (antibody, V domains shown, See note of m2; also called WT / T96V) VH: EVQLVESGGGLVQPGGSLRLSCAASGFTFSPFAMSWVRQAPGKGLEWVAKISPGGSWTYYSDTVTGRFTFSLDTSKSTAYLQMNSLRAEDTAVYYCARQLWGYYALDIWGQGTLVTVSS VL: DIQLTQSPSSLSASVGDRVTITCSASISVSYMYWYQQKPGKAPKLLIYDMSNLASGVPSRFSGSGSGTDFTLTISSLQPEDFATYYCMQWSGYPYVFGQGTKVEIK", "fulfilled"),
    ("anti-IL-6 antibody, light chain L46V (heavy chain WT) (antibody, V domains shown, See note of m2; also called WT / L46V) VH: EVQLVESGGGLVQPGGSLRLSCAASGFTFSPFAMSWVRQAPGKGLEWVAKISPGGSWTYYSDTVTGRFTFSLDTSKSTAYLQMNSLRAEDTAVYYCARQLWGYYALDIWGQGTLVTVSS VL: DIQLTQSPSSLSASVGDRVTITCSASISVSYMYWYQQKPGKAPKLVIYDMSNLASGVPSRFSGSGSGTDFTLTISSLQPEDFATYYCMQWSGYPYTFGQGTKVEIK", "fulfilled"),
    ("anti-IL-6 antibody, light chain M32L (heavy chain WT) (antibody, V domains shown, See note of m2; also called WT / M32L) VH: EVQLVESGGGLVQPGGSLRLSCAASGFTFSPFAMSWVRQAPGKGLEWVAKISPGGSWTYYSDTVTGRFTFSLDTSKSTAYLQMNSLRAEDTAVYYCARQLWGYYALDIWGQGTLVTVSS VL: DIQLTQSPSSLSASVGDRVTITCSASISVSYLYWYQQKPGKAPKLLIYDMSNLASGVPSRFSGSGSGTDFTLTISSLQPEDFATYYCMQWSGYPYTFGQGTKVEIK", "not fulfilled"),
    ("anti-IL-6 antibody, light chain S55Y (heavy chain WT) (antibody, V domains shown, See note of m2; also called WT / S55Y) VH: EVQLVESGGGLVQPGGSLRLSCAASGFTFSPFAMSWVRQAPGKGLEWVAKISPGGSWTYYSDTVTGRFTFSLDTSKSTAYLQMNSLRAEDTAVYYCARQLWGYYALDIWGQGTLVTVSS VL: DIQLTQSPSSLSASVGDRVTITCSASISVSYMYWYQQKPGKAPKLLIYDMSNLAYGVPSRFSGSGSGTDFTLTISSLQPEDFATYYCMQWSGYPYTFGQGTKVEIK", "fulfilled"),
    ("anti-IL-6 antibody, light chain A54Y (heavy chain WT) (antibody, V domains shown, See note of m2; also called WT / A54Y) VH: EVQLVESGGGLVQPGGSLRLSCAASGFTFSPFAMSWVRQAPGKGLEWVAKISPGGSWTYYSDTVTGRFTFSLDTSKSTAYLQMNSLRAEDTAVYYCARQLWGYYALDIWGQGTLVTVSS VL: DIQLTQSPSSLSASVGDRVTITCSASISVSYMYWYQQKPGKAPKLLIYDMSNLYSGVPSRFSGSGSGTDFTLTISSLQPEDFATYYCMQWSGYPYTFGQGTKVEIK", "not fulfilled"),
    ("anti-IL-6 antibody, light chain I47V (heavy chain WT) (antibody, V domains shown, See note of m2; also called WT / 147V) VH: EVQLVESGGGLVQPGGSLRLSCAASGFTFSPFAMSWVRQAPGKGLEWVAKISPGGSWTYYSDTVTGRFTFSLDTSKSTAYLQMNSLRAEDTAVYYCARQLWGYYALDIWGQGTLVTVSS VL: DIQLTQSPSSLSASVGDRVTITCSASISVSYMYWYQQKPGKAPKLLVYDMSNLASGVPSRFSGSGSGTDFTLTISSLQPEDFATYYCMQWSGYPYTFGQGTKVEIK", "fulfilled"),
    ("anti-IL-6 antibody, light chain A54G (heavy chain WT) (antibody, V domains shown, See note of m2; also called WT / A54G) VH: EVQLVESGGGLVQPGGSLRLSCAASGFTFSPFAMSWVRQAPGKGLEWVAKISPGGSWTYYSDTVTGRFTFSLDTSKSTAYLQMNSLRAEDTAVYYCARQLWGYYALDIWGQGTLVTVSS VL: DIQLTQSPSSLSASVGDRVTITCSASISVSYMYWYQQKPGKAPKLLIYDMSNLGSGVPSRFSGSGSGTDFTLTISSLQPEDFATYYCMQWSGYPYTFGQGTKVEIK", "fulfilled"),
    ("anti-IL-6 antibody, light chain Y48W (heavy chain WT) (antibody, V domains shown, See note of m2; also called WT / Y48W) VH: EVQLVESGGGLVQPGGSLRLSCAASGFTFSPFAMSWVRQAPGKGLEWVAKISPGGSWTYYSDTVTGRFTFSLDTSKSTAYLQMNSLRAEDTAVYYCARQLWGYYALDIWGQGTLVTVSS VL: DIQLTQSPSSLSASVGDRVTITCSASISVSYMYWYQQKPGKAPKLLIWDMSNLASGVPSRFSGSGSGTDFTLTISSLQPEDFATYYCMQWSGYPYTFGQGTKVEIK", "fulfilled"),
    ("anti-IL-6 antibody, light chain D49E (heavy chain WT) (antibody, V domains shown, See note of m2; also called WT / D49E) VH: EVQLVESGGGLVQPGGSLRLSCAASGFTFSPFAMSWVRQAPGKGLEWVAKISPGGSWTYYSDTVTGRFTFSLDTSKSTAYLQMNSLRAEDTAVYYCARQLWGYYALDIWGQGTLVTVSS VL: DIQLTQSPSSLSASVGDRVTITCSASISVSYMYWYQQKPGKAPKLLIYEMSNLASGVPSRFSGSGSGTDFTLTISSLQPEDFATYYCMQWSGYPYTFGQGTKVEIK", "fulfilled"),
    ("anti-IL-6 antibody, light chain L53R (heavy chain WT) (antibody, V domains shown, See note of m2; also called WT / L53R) VH: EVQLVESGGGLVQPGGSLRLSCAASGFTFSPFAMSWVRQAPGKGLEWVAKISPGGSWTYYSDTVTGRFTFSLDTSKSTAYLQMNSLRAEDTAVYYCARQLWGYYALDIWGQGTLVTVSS VL: DIQLTQSPSSLSASVGDRVTITCSASISVSYMYWYQQKPGKAPKLLIYDMSNRASGVPSRFSGSGSGTDFTLTISSLQPEDFATYYCMQWSGYPYTFGQGTKVEIK", "fulfilled"),
]
